Listed here are compounds together with their documented pIC50.
measured.on: AR-LBD (Homo sapiens)
Construct: The pET28a-AR-LBD (622-919) construct; made in house
Sequence (P10275 622-919): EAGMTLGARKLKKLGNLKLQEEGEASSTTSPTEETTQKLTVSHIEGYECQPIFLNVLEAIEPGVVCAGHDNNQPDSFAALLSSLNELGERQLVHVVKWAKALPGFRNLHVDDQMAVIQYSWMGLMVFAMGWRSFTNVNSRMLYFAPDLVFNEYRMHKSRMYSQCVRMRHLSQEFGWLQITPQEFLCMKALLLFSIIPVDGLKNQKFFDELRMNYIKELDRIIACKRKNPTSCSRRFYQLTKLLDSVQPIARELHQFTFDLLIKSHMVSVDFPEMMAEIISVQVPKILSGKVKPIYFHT
experiment.notes: H^3-DHT radioligand binding assay
experimental.context: read-out: IC50 in H^3-DHT binding assay (potency range in words)
pIC50: −log10 of the molar value.

# lookup: pIC50 of `Cc1cccc2c(-c3ccc(O)c(F)c3)c[nH]c12`
4.00 to 5.00

Here is the next item to consider.
# lookup: pIC50 of `Cc1c(-c2ccccc2F)[nH]c2ccc(CNC(=O)c3ccc(CO)o3)cc12`
4.00 to 5.00

====

measured.on: AR (Homo sapiens, UniProt P10275, T878A)
Construct: the amount of soluble AR protein in heat shocked C4-2 cell lysates; endogenous in cells; host or cells: C4-2 castration resistant prostate cancer cells
Sequence (P10275 1-920 T878A): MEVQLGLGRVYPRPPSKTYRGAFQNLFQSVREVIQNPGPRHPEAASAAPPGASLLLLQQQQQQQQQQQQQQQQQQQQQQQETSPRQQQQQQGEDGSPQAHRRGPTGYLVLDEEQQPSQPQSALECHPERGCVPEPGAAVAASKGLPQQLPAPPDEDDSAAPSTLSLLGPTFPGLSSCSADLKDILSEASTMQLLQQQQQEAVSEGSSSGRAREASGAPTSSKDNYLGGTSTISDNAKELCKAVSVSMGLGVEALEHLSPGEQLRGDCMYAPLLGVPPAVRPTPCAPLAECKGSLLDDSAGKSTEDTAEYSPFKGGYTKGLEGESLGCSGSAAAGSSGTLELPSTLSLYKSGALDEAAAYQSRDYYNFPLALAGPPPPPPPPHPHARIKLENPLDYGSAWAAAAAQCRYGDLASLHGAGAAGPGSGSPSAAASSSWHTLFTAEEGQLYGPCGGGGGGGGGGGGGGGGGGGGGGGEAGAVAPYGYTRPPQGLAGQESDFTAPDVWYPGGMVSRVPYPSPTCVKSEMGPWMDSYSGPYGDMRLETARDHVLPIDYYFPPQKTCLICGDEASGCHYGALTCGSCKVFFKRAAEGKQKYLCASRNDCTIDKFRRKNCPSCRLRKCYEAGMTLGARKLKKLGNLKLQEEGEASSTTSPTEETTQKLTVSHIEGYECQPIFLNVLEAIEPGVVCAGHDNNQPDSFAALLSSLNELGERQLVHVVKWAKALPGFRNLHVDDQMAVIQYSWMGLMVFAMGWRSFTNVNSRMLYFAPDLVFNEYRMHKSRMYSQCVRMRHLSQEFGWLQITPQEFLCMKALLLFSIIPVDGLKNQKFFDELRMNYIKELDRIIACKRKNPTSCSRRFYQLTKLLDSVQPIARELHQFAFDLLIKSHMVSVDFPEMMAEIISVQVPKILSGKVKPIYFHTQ
experiment.notes: AlphaScreen cellular thermal shift assay (CETSA) for AR target engagement in C4-2 cells
Type: cell-based
experimental.context: b133, unit inferred; read-out: IC50, inhibition of DHT-induced AR stability at 46° C.
Protocol: Mouse anti-hAR (BD Biosciences, San Jose, CA) and rabbit anti-hAR (MilliporeSigma, Burlington, MA) were diluted 1:330 and 1:1000 fold respectively in PBS containing 0.5 mg/mL BSA and 4 μL of the combined diluted AR antibody pair were added to 4 μL of the cell lysate supernatant in a 384-well plate and incubated in the dark for 30 min at room temperature. […]
measurement.kind: IC50 (µM)
Provide the reading as a plain figure in µM.

# lookup: IC50 of `Cc1c(-c2ccccc2F)[nH]c2ccc(CNC(=O)c3ccc(CO)o3)cc12`
9.46
